The values you see were collected from patent US11540516B2.

The following compounds are shown together with reported melting point values.

Consider the following illustrative entries.
[[record]]
compound = "CC(C1CC1)N(C(=O)c1ccc(S(C)(=O)=O)cc1)c1cccc(C(=O)Nc2c(Br)cc(C(F)(C(F)(F)F)C(F)(F)F)cc2C(F)(F)F)c1F (stereo not shown)"
measured_quantity = "melting point"
value_measured = "76 to 78.8 °C"

[[record]]
compound = "N#Cc1ccc(C(=O)N(c2cccc(C(=O)Nc3c(Br)cc(C(F)(C(F)(F)F)C(F)(F)F)cc3C(F)(F)F)c2F)C(C2CC2)C2CC2)cc1"
measured_quantity = "melting point"
value_measured = "73.5 to 76.1 °C"


Return reported melting point; argument: COC(c1cc(Br)c(NC(=O)c2cccc(N(CC3CC3)C(=O)c3ccc(Cl)cc3)c2F)c(C(F)(F)F)c1)(C(F)(F)F)C(F)(F)F
139.3 to 140.2 °C

Return reported melting point; argument: COC(c1cc(Br)c(NC(=O)c2cccc(N(CC3CC3)C(=O)c3ccc(C#N)cc3)c2F)c(C(F)(F)F)c1)(C(F)(F)F)C(F)(F)F
152.3 to 153.5 °C

* * *

Test system: Spodoptera exigua Hiibner
Assay: Indoor bioactivity test against Spodoptera exigua Hiibner (leaf dip)
Type: in vivo
Details: foliar, 1 ppm, 3rd day after treatment
The following compounds are shown together with reported mortality at 1 ppm values.
Write the number in % without appending the unit.

Consider the following illustrative entries.
[[record]]
smiles_text = "O=C(Nc1c(I)cc(C(F)(C(F)(F)F)C(F)(F)F)cc1C(F)(F)F)c1cccc(N(CC2CC2)C(=O)c2ccc(Br)cc2)c1F"
measured_quantity = "mortality at 1 ppm"
result_units = "%"
value_measured = 90

[[record]]
smiles_text = "CS(=O)(=O)c1ccc(C(=O)N(CC2CC2)c2cccc(C(=O)Nc3c(Br)cc(C(F)(C(F)(F)F)C(F)(F)F)cc3C(F)(F)F)c2F)cc1"
measured_quantity = "mortality at 1 ppm"
result_units = "%"
value_measured = 90


We now examine a further compound.
Return reported mortality at 1 ppm; argument: O=C(Nc1c(Br)cc(C(F)(C(F)(F)F)C(F)(F)F)cc1C(F)(F)F)c1cccc(N(CC2CC2)C(=O)c2ccc(C(F)(F)F)cc2)c1F
90
